- method-summary: In vitro skin S9 metabolic stability assay (mouse)
- Assay type: in vitro ADME
- conditions: mouse skin S9 sub-fraction, pH 7.4; Mouse skin S9, 2 μM, 1.0 mg/mL protein, 1 mM NADPH; read-out: Half-Life
Exercise: state measured half-life at 2 μM for each of the compounds provided.

In plain terms, CC(Cc1cccc(C(F)(F)F)c1)NCCOC(=O)c1ccccc1 (centres unmarked) [Benfluorex, reference compound] has a documented half-life at 2 μM of < 15 min

In plain terms, CCOc1ccc2ccc(=O)oc2c1 [7-Ethoxycoumarin, reference compound] has a documented half-life at 2 μM of > 30 min

----------
- method-summary: physchem
- Format: physicochemical
- conditions: organic solvent or mixture, thermodynamic from solid, Solubility in Propylene glycol
experimental-endpoint: solubility at 4 h

In plain terms, CCCC(=O)OCc1nc(N(C)[C@@H]2C[C@H]3CCC[C@@H](C2)N3S(=O)(=O)CC)nc(Nc2cc(C)[nH]n2)c1F has a documented solubility at 4 h of > 10000 µg/mL

In plain terms, CCCCCCC(=O)OCc1nc(N(C)[C@@H]2C[C@H]3CCC[C@@H](C2)N3S(=O)(=O)CC)nc(Nc2cc(C)[nH]n2)c1F has a documented solubility at 4 h of 5000 to 10000 µg/mL

In plain terms, CCS(=O)(=O)N1[C@@H]2CCC[C@H]1C[C@H](N(C)c1nc(COC(C)=O)c(F)c(Nc3cc(C)[nH]n3)n1)C2 has a documented solubility at 4 h of > 10000 µg/mL

In plain terms, CCS(=O)(=O)N1[C@@H]2CCC[C@H]1C[C@H](N(C)c1nc(COC(=O)OC3CCCCC3)c(F)c(Nc3cc(C)[nH]n3)n1)C2 has a documented solubility at 4 h of 5000 to 10000 µg/mL

In plain terms, CCC(=O)OCc1nc(N(C)[C@@H]2C[C@H]3CCC[C@@H](C2)N3S(=O)(=O)CC)nc(Nc2cc(C)[nH]n2)c1F has a documented solubility at 4 h of > 10000 µg/mL

In plain terms, CCS(=O)(=O)N1[C@@H]2CCC[C@H]1C[C@H](N(C)c1nc(CO)c(F)c(Nc3cc(C)[nH]n3)n1)C2 has a documented solubility at 4 h of < 5000 µg/mL

In plain terms, CCS(=O)(=O)N1[C@@H]2CCC[C@H]1C[C@H](N(C)c1nc(COC(=O)OC(C)C)c(F)c(Nc3cc(C)[nH]n3)n1)C2 has a documented solubility at 4 h of < 5000 µg/mL

In plain terms, CCCCC(=O)OCc1nc(N(C)[C@@H]2C[C@H]3CCC[C@@H](C2)N3S(=O)(=O)CC)nc(Nc2cc(C)[nH]n2)c1F has a documented solubility at 4 h of < 5000 µg/mL

In plain terms, CCS(=O)(=O)N1[C@@H]2CCC[C@H]1C[C@H](N(C)c1nc(COC(=O)OC3CCOCC3)c(F)c(Nc3cc(C)[nH]n3)n1)C2 has a documented solubility at 4 h of > 10000 µg/mL

In plain terms, CCS(=O)(=O)N1[C@@H]2CCC[C@H]1C[C@H](N(C)c1nc(COC(=O)C3CCOCC3)c(F)c(Nc3cc(C)[nH]n3)n1)C2 has a documented solubility at 4 h of > 10000 µg/mL
